experiment: FAA pharmacokinetics and plasma levels in pigs (HPLC); assay type: in vivo, pig; conditions: Babcock 4-way cross (Landrace, Yorkshire, Hampshire, Durock), pig, plasma, intravenous; 30 minutes after starting bolus 5.5 g/m^2 plus infusion 0.14 g/m^2/minute
Result Type: concentration at 30 min
Remember to follow the number with its unit.

Prompt: What value of measured concentration at 30 min is listed for O=C(O)Cc1cccc2c(=O)cc(-c3ccccc3)oc12 ?
Completion: 515 µg/mL

* * *

experiment: FAA pharmacokinetics and plasma levels in pigs (HPLC); assay type: in vivo, pig; settings: pig, plasma; two animals, intravenous bolus 1 gm/m^2, one compartment open model
Result Type: half-life
Remember to follow the number with its unit.

Prompt: What value of measured half-life is listed for O=C(O)Cc1cccc2c(=O)cc(-c3ccccc3)oc12 ?
Completion: 27.9 min
